experiment: Cytotoxicity against mouse BV-2 cells assessed as survival rate at 5 uM incubated for 24 hrs by CCK8 assay relative to control; assay type: toxicity, cell-based; conditions: read-out: Survival
// reported viability at 24 h, 5 µM per item
Report only the number, with the unit % understood.

Report viability at 24 h, 5 µM, nothing else, for this compound: COc1cc(OC)c2c(c1)OCCC1=C2NC(N)=NC1c1cccc(C(F)(F)F)c1 (stereo not given)
109

Report viability at 24 h, 5 µM, nothing else, for this compound: "COc1cc(OC)c2c(c1)OCC/C(=C\c1c(F)cccc1F)C2=O"
146

Report viability at 24 h, 5 µM, nothing else, for this compound: "COc1cc(OC)c2c(c1)OCC/C(=C\c1cccc(F)c1C(F)(F)F)C2=O"
120

Report viability at 24 h, 5 µM, nothing else, for this compound: COc1cc(OC)c2c(c1)OCCC1=C2NC(N)=NC1c1cccc(F)c1 (stereo not given)
120

Report viability at 24 h, 5 µM, nothing else, for this compound: "COc1cc(OC)c2c(c1)OCC/C(=C\c1cccc(F)c1)C2=O"
146

----------
assay: Cytotoxicity against mouse BV-2 cells assessed as survival rate at 5 uM incubated for 24 hrs by CCK8 assay relative to control; type: toxicity, cell-based; details: read-out: Survival
// reported viability at 24 h, 5 µM per item
Report only the number, with the unit % understood.

# example entries with known answers
Report viability at 24 h, 5 µM, nothing else, for this molecule: "COc1cc(OC)c2c(c1)OCC/C(=C\c1ccccc1C(F)(F)F)C2=O"
142

Report viability at 24 h, 5 µM, nothing else, for this molecule: COc1cc(OC)c2c(c1)OCCC1=C2NC(N)=NC1c1c(F)cccc1C(F)(F)F (centres undefined)
124

Next:
Report viability at 24 h, 5 µM, nothing else, for this molecule: COc1cc(OC)c2c(c1)OCCC1=C2NC(N)=NC1c1cc(C(F)(F)F)cc(C(F)(F)F)c1 (centres undefined)
151

Report viability at 24 h, 5 µM, nothing else, for this molecule: COc1cc(OC)c2c(c1)OCCC1=C2NC(N)=NC1c1cc(F)cc(F)c1 (centres undefined)
128

Report viability at 24 h, 5 µM, nothing else, for this molecule: "COc1cncc(-c2nc(N)nc3c2CCc2ccc(F)cc2-3)c1"
99.3

----------
experiment: Cytotoxicity against mouse BV-2 cells assessed as survival rate at 5 uM incubated for 24 hrs by CCK8 assay relative to control; format: toxicity, cell-based; conditions: read-out: Survival
reportedEndpoint: viability at 24 h, 5 µM (%)
Report only the number, with the unit % understood.

Report viability at 24 h, 5 µM, nothing else, for this compound: COc1cc(OC)c2c(c1)OCCC1=C2NC(N)=NC1c1ccc(F)cc1 (centres undefined)
157

Next:
Report viability at 24 h, 5 µM, nothing else, for this compound: COc1cc(OC)c2c(c1)OCCC1=C2NC(N)=NC1c1cccc(F)c1C(F)(F)F (centres undefined)
95.4

Report viability at 24 h, 5 µM, nothing else, for this compound: COc1cc(OC)c2c(c1)OCCC1=C2NC(N)=NC1c1cc(F)ccc1F (centres undefined)
156

Report viability at 24 h, 5 µM, nothing else, for this compound: COc1cc(OC)c2c(c1)OCCC1=C2NC(N)=NC1c1ccc(F)cc1C(F)(F)F (centres undefined)
87.4

----------
// reported viability at 24 h, 5 µM per item
experiment: Cytotoxicity against mouse BV-2 cells assessed as survival rate at 5 uM incubated for 24 hrs by CCK8 assay relative to control; assay type: toxicity, cell-based; details: read-out: Survival
Report only the number, with the unit % understood.

# example entries with known answers
Report viability at 24 h, 5 µM, nothing else, for this compound: "COc1cc(OC)c2c(c1)OCC/C(=C\c1cc(F)ccc1F)C2=O"
168

Report viability at 24 h, 5 µM, nothing else, for this compound: "COc1cc(OC)c2c(c1)OCC/C(=C\c1ccc(F)cc1C(F)(F)F)C2=O"
114

Next:
Report viability at 24 h, 5 µM, nothing else, for this compound: COc1cc(OC)c2c(c1)OCCC1=C2NC(N)=NC1c1cccc(C(F)(F)F)c1F (stereo not given)
111

Report viability at 24 h, 5 µM, nothing else, for this compound: COc1cc(OC)c2c(c1)OCCC1=C2NC(N)=NC1c1ccc(C(F)(F)F)cc1 (stereo not given)
150

Report viability at 24 h, 5 µM, nothing else, for this compound: "COc1cc(OC)c2c(c1)OCC/C(=C\c1cccc(C(F)(F)F)c1F)C2=O"
117

Report viability at 24 h, 5 µM, nothing else, for this compound: COc1cc(OC)c2c(c1)OCCC1=C2NC(N)=NC1c1ccccc1C(F)(F)F (stereo not given)
113

Report viability at 24 h, 5 µM, nothing else, for this compound: "COc1cc(OC)c2c(c1)OCC/C(=C\c1c(F)cccc1C(F)(F)F)C2=O"
116

Report viability at 24 h, 5 µM, nothing else, for this compound: "COc1cc(OC)c2c(c1)OCC/C(=C\c1ccc(C(F)(F)F)cc1)C2=O"
145

Report viability at 24 h, 5 µM, nothing else, for this compound: COc1cc(OC)c2c(c1)OCCC(C(O)c1cccc(C(F)(F)F)c1)C2=O (stereo not given)
150

Report viability at 24 h, 5 µM, nothing else, for this compound: COc1cc(OC)c2c(c1)OCCC1=C2NC(N)=NC1c1c(F)cccc1F (stereo not given)
126
